# Test system: Gaeumannomyces graminis var. tritici (Ggt)
# assay.name: In vitro Assay: mycelial growth of Ggt on minimal media agar plates containing test compound
# Assay type: cell-based
# run.parameters: Gaeumannomyces graminis; 0.1 ppm in minimal media agar; dark, 19-20° C., 4 to 5 days; diameter of mycelial growth; read-out: In vitro (ppm) 0.1, Percent Inhibition
Below, each of the compounds is paired with its reported inhibition at 0.1 ppm value.
parameter.measured: inhibition at 0.1 ppm (%)

In [3]: df
Out[3]:
                                   compound                             target_system  numeric_readout
0  CCNC(=O)c1c(C(F)(F)F)cccc1[Si](C)(C)C [Example 82]  Gaeumannomyces graminis var. tritici (Ggt)               30
1  Cc1ccccc1NC(=O)c1ccccc1[Si](C)(C)C [Example 121]  Gaeumannomyces graminis var. tritici (Ggt)                4
2  C=CCNC(=O)c1sc(Cl)cc1[Si](C)(C)C [Example 262]  Gaeumannomyces graminis var. tritici (Ggt)               13
3  CCCCCCCCNC(=O)c1c(Cl)cccc1[Si](C)(C)C [Example 17]  Gaeumannomyces graminis var. tritici (Ggt)               59
4  CCCN(CCC)C(=O)c1ccccc1[Si](C)(C)C [Example 13, N,N-Dipropyl-2-(trimethylsilyl)benzamide]  Gaeumannomyces graminis var. tritici (Ggt)                7
5  CCCCNC(=O)c1c(Cl)cccc1[Si](C)(C)C [Example 20]  Gaeumannomyces graminis var. tritici (Ggt)                7
6  CCNC(=O)c1c(Cl)cccc1[Si](C)(C)C1CC2CCC1C2 (stereo not shown) [Example 183]  Gaeumannomyces graminis var. tritici (Ggt)               24

====

Below, each of the compounds is paired with its reported inhibition at 0.1 ppm value.
# Test system: Gaeumannomyces graminis var. tritici (Ggt)
# assay.name: In vitro Assay: mycelial growth of Ggt on minimal media agar plates containing test compound
# Format: cell-based
# run.parameters: Gaeumannomyces graminis; 0.1 ppm in minimal media agar; dark, 19-20° C., 4 to 5 days; diameter of mycelial growth; read-out: In vitro (ppm) 0.1, Percent Inhibition
parameter.measured: inhibition at 0.1 ppm (%)

                                    compound                             target_system     parameter_measured  qualifier_sign  numeric_readout
 0    CCN(CC)C(=O)c1c([Si](C)(C)C)ccc(C)c1Cl  Gaeumannomyces graminis var. tritici (Ggt)  inhibition at 0.1 ppm               =               39
 1  CCN(CC)C(=O)c1c(C(F)(F)F)ccc(C(F)(F)F)c1[Si](C)(C)C  Gaeumannomyces graminis var. tritici (Ggt)  inhibition at 0.1 ppm               =                8
 2         CCN=C(SCC)c1c(Cl)cccc1[Si](C)(C)C  Gaeumannomyces graminis var. tritici (Ggt)  inhibition at 0.1 ppm               <                0
 3        CCN(CC)C(=S)c1c(C)cccc1[Si](C)(C)C  Gaeumannomyces graminis var. tritici (Ggt)  inhibition at 0.1 ppm               <                0
 4            CCN(SC)C(=O)c1sccc1[Si](C)(C)C  Gaeumannomyces graminis var. tritici (Ggt)  inhibition at 0.1 ppm               =               14
 5    CCN(C(=O)c1c(Cl)cccc1[Si](C)(C)C)C(C)C  Gaeumannomyces graminis var. tritici (Ggt)  inhibition at 0.1 ppm               <                0
 6  CCN(C(=O)c1cc(N(C)C)ccc1[Si](C)(C)C)C(OC)C(C)(C)C (stereo not shown)  Gaeumannomyces graminis var. tritici (Ggt)  inhibition at 0.1 ppm               <                0
 7       C[Si](C)(C)c1cccc(Cl)c1C(=O)NCC1CC1  Gaeumannomyces graminis var. tritici (Ggt)  inhibition at 0.1 ppm               =               34
 8  CCNC(=O)c1c([Si](C)(C)C)ccc(C#C[Si](C)(C)C)c1Cl  Gaeumannomyces graminis var. tritici (Ggt)  inhibition at 0.1 ppm               <                0
 9      CC(C)N(O)C(=O)c1sc(Cl)cc1[Si](C)(C)C  Gaeumannomyces graminis var. tritici (Ggt)  inhibition at 0.1 ppm               =               64
10       C/C=C\NC(=O)c1c(Cl)cccc1[Si](C)(C)C  Gaeumannomyces graminis var. tritici (Ggt)  inhibition at 0.1 ppm               =               81
11      C=C(C)CNC(=O)c1c(Cl)cccc1[Si](C)(C)C  Gaeumannomyces graminis var. tritici (Ggt)  inhibition at 0.1 ppm               <                0
12       CC(C)CNC(=O)c1c(Cl)cccc1[Si](C)(C)C  Gaeumannomyces graminis var. tritici (Ggt)  inhibition at 0.1 ppm               =                3
